// reported viability, T/C for each item listed
# System: K24384-001-R-PDC complex spheroid viability;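 also: spheroids exposed to agents for seven days before luminescence viability reading; 100% = DMSO vehicle control viability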
# MEASUREMENT NOTES: Anticancer human tumor K24384-001-R-PDC patient-derived pancreatic adenocarcinoma cell line growth inhibition
# DETAILS: second compound 0.1 µM; first compound 0.0949 µM; stronger effect = lower value

{"MOLECULE": "O=C(C=Cc1cccc(S(=O)(=O)Nc2ccccc2)c1)NO + NC1CC1c1ccc(-c2cccc(O)c2)cc1", "viability, T/C": "95.5%"}
{"MOLECULE": "Nc1ncn(C2CC(O)C(CO)S2)c(=O)n1 (stereo unspecified) + NC1CCC(NC2CC2c2ccccc2)CC1", "viability, T/C": "78.1%"}
{"MOLECULE": "CCN(c1cc(-c2ccc(CN3CCOCC3)cc2)cc(C(=O)NCc2c(C)cc(C)[nH]c2=O)c1C)C1CCOCC1 + NC1CC1c1ccc(-c2cccc(O)c2)cc1", "viability, T/C": "102%"}
{"MOLECULE": "COc1cc(C2c3cc4c(cc3C(OC3OC5COC(C)OC5C(O)C3O)C3COC(=O)C23)OCO4)cc(OC)c1O (stereo unspecified) + NC1CCC(NC2CC2c2ccccc2)CC1", "viability, T/C": "86.4%"}
{"MOLECULE": "Nc1ncn(C2CC(O)C(CO)S2)c(=O)n1 (stereo unspecified) + NC1CC1c1ccc(-c2cccc(O)c2)cc1", "viability, T/C": "67.3%"}
{"MOLECULE": "CCc1c2c(nc3ccc(O)cc13)-c1cc3c(c(=O)n1C2)COC(=O)[C@]3(O)CC + NC1CC1c1ccc(-c2cccc(O)c2)cc1", "viability, T/C": "5.66%"}
